TESTED ON: 5-HT7 receptors (Homo sapiens, UniProt P34969)
Sequence (P34969 whole entry, the tested form may be a part): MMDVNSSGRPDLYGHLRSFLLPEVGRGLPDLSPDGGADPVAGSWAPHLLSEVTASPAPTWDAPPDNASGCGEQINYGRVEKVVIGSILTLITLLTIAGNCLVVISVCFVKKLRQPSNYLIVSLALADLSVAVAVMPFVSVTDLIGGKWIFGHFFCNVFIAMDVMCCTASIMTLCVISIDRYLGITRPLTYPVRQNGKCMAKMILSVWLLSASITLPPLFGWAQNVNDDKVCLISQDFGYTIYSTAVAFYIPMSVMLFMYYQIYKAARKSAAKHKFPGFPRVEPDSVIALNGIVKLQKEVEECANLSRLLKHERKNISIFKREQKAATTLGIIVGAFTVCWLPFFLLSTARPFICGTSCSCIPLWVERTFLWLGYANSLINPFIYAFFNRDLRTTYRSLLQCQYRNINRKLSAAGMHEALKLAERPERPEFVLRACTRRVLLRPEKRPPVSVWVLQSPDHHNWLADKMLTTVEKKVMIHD
PROTOCOL DETAILS: HitHunter cAMP enzyme fragment complementation assay, antagonist activity in presence of 5-HT (Kb)
Format: cell-based
Design: expressed in transfected cells; kept under G418 selection
CONDITION LABEL: antagonist mode vs EC70 5-HT

MOLECULE: CC(=O)N[C@@H](C)C(=O)N1CCC2(CC1)C[C@H](CCN1CCN(c3ccc(F)cc3)CC1)NC2=O [Compound A39]
Kb: < 10 nM

MOLECULE: CCC1(CC)C[C@H](CCN2CCN(c3ccccc3)CC2)N(C)C1=O [Compound A85]
Kb: 10 to 100 nM

MOLECULE: CCC(=O)N1CCC2(CC1)C[C@H](CCN1CCN(c3ccc(F)cc3)CC1)N(C)C2=O [Compound A97]
Kb: < 10 nM

MOLECULE: O=C(CC(F)(F)F)N1CCC2(CC1)C[C@H](CCN1CCN(c3ccc(F)cc3)CC1)NC2=O [Compound A95]
Kb: 10 to 100 nM

MOLECULE: CC(=O)NCC(=O)N1CCC2(CC1)C[C@H](CCN1CCN(c3cccc(Cl)c3)CC1)NC2=O [Compound A5]
Kb: < 10 nM

MOLECULE: O=C(CN1CCOC1=O)N1CCC2(CC1)C[C@H](CCN1CCN(c3ccc(F)cc3)CC1)NC2=O [Compound A83]
Kb: 100 to 500 nM

MOLECULE: CCC1(CC)C[C@H](CCN2CCN(c3cccc(Cl)c3)CC2)N(C)C1=O [Compound A86]
Kb: < 10 nM

MOLECULE: CC(=O)N1CCC2(CC1)C[C@H](CCN1CCN(c3ccc(F)cc3)C[C@H]1C)NC2=O [Compound A108]
Kb: < 10 nM

MOLECULE: CC(=O)NCC(=O)N1CCC2(CC1)C[C@H](CCN1CCN(c3ccc(F)cc3)CC1)NC2=O [Compound A6]
Kb: < 10 nM

MOLECULE: CC(C)C(=O)N1CCC2(CC1)C[C@H](CCN1CCN(c3ccc(F)cc3)CC1)N(C)C2=O [Compound A98]
Kb: 10 to 100 nM

MOLECULE: CC[C@H](NC(C)=O)C(=O)N1CCC2(CC1)C[C@H](CCN1CCN(c3ccc(F)cc3)CC1)NC2=O [Compound A183]
Kb: < 10 nM

MOLECULE: CC(=O)N1CCC2(CC1)C[C@H](CCN1CCN(c3cccc(Cl)c3)CC1)N(C)C2=O [Compound A89]
Kb: 10 to 100 nM

MOLECULE: CN1C(=O)C2(CCN(C(=O)C(C)(C)C)CC2)C[C@@H]1CCN1CCN(c2cccc(Cl)c2)CC1 [Compound A91]
Kb: 10 to 100 nM

MOLECULE: CC(=O)N1CCC2(CC1)C[C@H](CCN1CCN(c3ccc(F)cc3)C[C@@H]1C)NC2=O [Compound A107]
Kb: < 10 nM

MOLECULE: CC(=O)N1CCC2(CC1)C[C@H](CCN1CCN(c3ccc(F)cc3)[C@@H](C)C1)NC2=O [Compound A109]
Kb: 10 to 100 nM

MOLECULE: O=C(c1cccnn1)N1CCC2(CC1)C[C@H](CCN1CCN(c3ccc(F)cc3)CC1)NC2=O [Compound A84]
Kb: 100 to 500 nM

* * *

TESTED ON: 5-HT7 receptors (Homo sapiens, UniProt P34969)
PROTOCOL DETAILS: Radiolabeled binding ([3H]LSD competition), membranes of cells expressing recombinant 5-HT7 receptors
CONDITION LABEL: [3H]LSD radioligand binding
pKi: −log10 of the molar value.
RESULT TYPE: pKi

COMPOUND: CC(C)(N)C(=O)N1CCC2(CC1)C[C@H](CCN1CCN(c3ccc(F)cc3)CC1)NC2=O [Compound A13]
RESULT TYPE: pKi
ASSAY VALUE: 6.30 to 6.70

COMPOUND: O=C(CN1CCOCC1)N1CCC2(CC1)C[C@H](CCN1CCN(c3ccc(F)cc3)CC1)NC2=O [Compound A33]
RESULT TYPE: pKi
ASSAY VALUE: ≤ 6.30

COMPOUND: CC(=O)NC(C)(C)C(=O)N1CCC2(CC1)C[C@H](CCN1CCN(c3cccc(Cl)c3)CC1)NC2=O [Compound A18]
RESULT TYPE: pKi
ASSAY VALUE: 6.30 to 6.70

COMPOUND: CC(C)(C)C(=O)NCC(=O)N1CCC2(CC1)C[C@H](CCN1CCN(c3ccc(F)cc3)CC1)NC2=O [Compound A25]
RESULT TYPE: pKi
ASSAY VALUE: 6.30 to 6.70

* * *

TESTED ON: 5-HT7 receptors (Homo sapiens, UniProt P34969)
PROTOCOL DETAILS: HitHunter cAMP enzyme fragment complementation assay, antagonist activity in presence of 5-HT (Kb)
Type: cell-based
Design: expressed in transfected cells; kept under G418 selection
CONDITION LABEL: antagonist mode vs EC70 5-HT
Description: Functional efficacy of the compounds of the disclosure on 5-HT7 serotonin receptors were measured in a cell based cAMP enzyme fragment complementation assay using the HitHunter cAMP assay (DiscoveRx). […] Luminescence was read on the Envision Multilabel plate reader.

COMPOUND: O=C(c1cccnc1)N1CCC2(CC1)C[C@H](CCN1CCN(c3ccc(F)cc3)CC1)NC2=O [Compound A81]
Kb: 100 to 500 nM

COMPOUND: NCC(=O)N1CCC2(CC1)C[C@H](CCN1CCN(c3ccc(F)cc3)CC1)NC2=O [Compound A2]
Kb: 10 to 100 nM

COMPOUND: CS(=O)(=O)NCC(=O)N1CCC2(CC1)C[C@H](CCN1CCN(c3cccc(Cl)c3)CC1)NC2=O [Compound A9]
Kb: 10 to 100 nM

COMPOUND: CCC1(CC)C[C@H](CCN2CCN(c3ccc(F)cc3)CC2)N(C)C1=O [Compound A87]
Kb: 10 to 100 nM

COMPOUND: CN1C(=O)C2(CCN(C(=O)C(C)(F)F)CC2)C[C@@H]1CCN1CCN(c2ccc(F)cc2)CC1 [Compound A103]
Kb: < 10 nM

COMPOUND: O=C(Cc1nnn[nH]1)N1CCC2(CC1)C[C@H](CCN1CCN(c3ccc(F)cc3)CC1)NC2=O [Compound A82]
Kb: ≥ 500 nM

COMPOUND: NCC(=O)N1CCC2(CC1)C[C@H](CCN1CCN(c3cccc(Cl)c3)CC1)NC2=O [Compound A1]
Kb: < 10 nM

COMPOUND: CN1C(=O)C2(CCN(C(=O)C3CC3)CC2)C[C@@H]1CCN1CCN(c2ccc(F)cc2)CC1 [Compound A99]
Kb: < 10 nM

COMPOUND: CC(=O)N[C@@H](C)C(=O)N1CCC2(CC1)C[C@H](CCN1CCN(c3ccc(F)cc3)C[C@H]1C)NC2=O [Compound A123]
Kb: < 10 nM

COMPOUND: CC(=O)N[C@@H](C)C(=O)N1CCC2(CC1)C[C@H](CCN1CCN(c3cccc(Cl)c3)CC1)NC2=O [Compound A40]
Kb: < 10 nM

COMPOUND: CC(=O)N[C@H](C(=O)N1CCC2(CC1)C[C@H](CCN1CCN(c3ccc(F)cc3)CC1)NC2=O)C(C)C [Compound A184]
Kb: < 10 nM

COMPOUND: CC(=O)N1CCC2(CC1)C[C@H](CCN1CCN(c3ccc(F)cc3)CC1)N(C)C2=O [Compound A88]
Kb: 10 to 100 nM

COMPOUND: CS(=O)(=O)NCC(=O)N1CCC2(CC1)C[C@H](CCN1CCN(c3ccc(F)cc3)CC1)NC2=O [Compound A10]
Kb: 10 to 100 nM

COMPOUND: COC(=O)N1CCC2(CC1)C[C@H](CCN1CCN(c3ccc(F)cc3)CC1)N(C)C2=O [Compound A124]
Kb: 10 to 100 nM

COMPOUND: CC(F)(F)C(=O)N1CCC2(CC1)C[C@H](CCN1CCN(c3ccc(F)cc3)CC1)NC2=O [Compound A93]
Kb: < 10 nM

COMPOUND: CN1C(=O)C2(CCN(C(=O)C(C)(C)C)CC2)C[C@@H]1CCN1CCN(c2ccc(F)cc2)CC1 [Compound A90]
Kb: < 10 nM

* * *

Listed next: entries and their corresponding Ki.
TESTED ON: 5-HT7 receptors (Homo sapiens, UniProt P34969)
PROTOCOL DETAILS: Radiolabeled binding ([3H]LSD competition), membranes of cells expressing recombinant 5-HT7 receptors
CONDITION LABEL: [3H]LSD radioligand binding

MOLECULE: CS(=O)(=O)NCC(=O)N1CCC2(CC1)C[C@H](CCN1CCN(c3cccc(Cl)c3)CC1)NC2=O [Compound A9]
TESTED ON: 5-HT7 receptors (Homo sapiens, UniProt P34969)
Ki: 50 to 200 nM

MOLECULE: CC(C)(C)C(=O)NC(C)(C)C(=O)N1CCC2(CC1)C[C@H](CCN1CCN(c3ccc(F)cc3)CC1)NC2=O [Compound A21]
TESTED ON: 5-HT7 receptors (Homo sapiens, UniProt P34969)
Ki: 50 to 200 nM

MOLECULE: CC(C)(C)C(=O)NCC(=O)N1CCC2(CC1)C[C@H](CCN1CCN(c3cccc(Cl)c3)CC1)NC2=O [Compound A26]
TESTED ON: 5-HT7 receptors (Homo sapiens, UniProt P34969)
Ki: 200 to 500 nM

MOLECULE: CS(=O)(=O)NCC(=O)N1CCC2(CC1)C[C@H](CCN1CCN(c3ccc(F)cc3)CC1)NC2=O [Compound A10]
TESTED ON: 5-HT7 receptors (Homo sapiens, UniProt P34969)
Ki: 50 to 200 nM

MOLECULE: CC(=O)NC(C)(C)C(=O)N1CCC2(CC1)C[C@H](CCN1CCN(c3ccc(F)cc3)CC1)NC2=O [Compound A17]
TESTED ON: 5-HT7 receptors (Homo sapiens, UniProt P34969)
Ki: 200 to 500 nM

MOLECULE: CN(C)CC(=O)N1CCC2(CC1)C[C@H](CCN1CCN(c3cccc(Cl)c3)CC1)NC2=O [Compound A30]
TESTED ON: 5-HT7 receptors (Homo sapiens, UniProt P34969)
Ki: 200 to 500 nM

MOLECULE: CN(C)CC(=O)N1CCC2(CC1)C[C@H](CCN1CCN(c3ccc(F)cc3)CC1)NC2=O [Compound A29]
TESTED ON: 5-HT7 receptors (Homo sapiens, UniProt P34969)
Ki: ≥ 500 nM

MOLECULE: CC(C)(N)C(=O)N1CCC2(CC1)C[C@H](CCN1CCN(c3cccc(Cl)c3)CC1)NC2=O [Compound A14]
TESTED ON: 5-HT7 receptors (Homo sapiens, UniProt P34969)
Ki: 200 to 500 nM

MOLECULE: CC(C)(C)C(=O)NC(C)(C)C(=O)N1CCC2(CC1)C[C@H](CCN1CCN(c3cccc(Cl)c3)CC1)NC2=O [Compound A22]
TESTED ON: 5-HT7 receptors (Homo sapiens, UniProt P34969)
Ki: 50 to 200 nM

This collection of values is drawn from patent US20230002383A1.
